# assayed-system: HDAC1 enzyme (Homo sapiens)
# Construct: transducing full length HDAC1 and HDAC6 genes into Sf-9 insect cells; GST; purchased SignalChem; host or cells: Sf-9 insect cells
# Sequence (Q13547 whole entry): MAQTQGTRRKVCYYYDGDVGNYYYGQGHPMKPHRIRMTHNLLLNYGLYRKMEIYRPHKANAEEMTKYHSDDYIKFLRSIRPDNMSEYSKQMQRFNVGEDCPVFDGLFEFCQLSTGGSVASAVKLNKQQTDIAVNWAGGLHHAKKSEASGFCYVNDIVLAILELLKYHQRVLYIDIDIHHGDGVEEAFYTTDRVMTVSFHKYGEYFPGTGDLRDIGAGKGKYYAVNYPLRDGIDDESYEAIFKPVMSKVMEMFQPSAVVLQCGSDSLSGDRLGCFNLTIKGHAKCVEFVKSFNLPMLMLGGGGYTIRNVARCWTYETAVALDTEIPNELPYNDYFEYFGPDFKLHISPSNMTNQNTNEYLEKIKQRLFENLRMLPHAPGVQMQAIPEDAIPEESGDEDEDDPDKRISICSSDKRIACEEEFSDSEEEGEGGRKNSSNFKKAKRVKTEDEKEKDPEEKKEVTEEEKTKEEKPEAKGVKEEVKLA
# test-name: HDAC1/6 Enzyme Inhibitory Assay (HDAC-Glo I/II Assay kit), HDAC1
# Format: biochemical
# test-settings: 1 μM test compound; wells without enzyme = 100% inhibition; read-out: HDAC1 inhibitory rate (%) (1 μM)
# Description: HDAC1/6 Enzyme Inhibitory Assay HDAC1 enzyme and HDAC6 enzyme each prepared by transducing full length HDAC1 and HDAC6 genes into Sf-9 insect cells and purifying by GST affinity column were purchased from SignalChem. Using these enzymes, HDAC1 and/or HDAC6 enzyme inhibitory activities of the compound of the present invention were evaluated. […] After reacting at room temperature for 20 min, luminescence level was measured using plate reader Envision (PerkinElmer). […]
quantity: inhibition at 1 µM (%)
Use % as the unit, but write only the number.

Task item: Item CC(C)(C#N)C(=O)N[C@@H]1CCCC[C@H]1N1Cc2ccc(-c3noc(C(F)(F)F)n3)cc2C1=O has what recorded inhibition at 1 µM?
Reply: 9

Task item: Ok, now CC1(C(=O)N[C@@H]2COCC[C@H]2N2Cc3ccc(-c4noc(C(F)(F)F)n4)cc3C2=O)COC1
Reply: 5

Task item: # iterate: Cn1cncc1C(=O)N[C@@H]1CCCC[C@H]1N1Cc2ccc(-c3noc(C(F)(F)F)n3)cc2C1=O
Reply: 18

Task item: Entry O=C1c2cc(-c3noc(C(F)(F)F)n3)ccc2CN1[C@@H]1CCCC[C@H]1NC(=O)C1(c2ccccc2)COC1 please
Reply: -5

Task item: // same read-out, input: O=C1c2cc(-c3noc(C(F)(F)F)n3)ccc2CN1[C@@H]1CNC[C@H]1c1ccccc1 (relative stereo)
Reply: 87

Task item: Do the same for O=C(N[C@@H]1CCOC[C@H]1N1Cc2ccc(-c3noc(C(F)(F)F)n3)cc2C1=O)[C@H]1CC1(F)F please
Reply: 19

Task item: Lookup CC(C)(C)OC(=O)N[C@@H]1CCCC[C@H]1N1Cc2ccc(-c3noc(C(F)(F)F)n3)cc2C1=O [Example 26]
Reply: 11

* * *

# assayed-system: HDAC9 enzyme (Homo sapiens, UniProt Q9UKV0)
# Construct: transducing full length HDAC9 gene into Sf-9 insect cells; made in house; host or cells: Sf-9 insect cells
# Sequence (Q9UKV0 whole entry, species assumed): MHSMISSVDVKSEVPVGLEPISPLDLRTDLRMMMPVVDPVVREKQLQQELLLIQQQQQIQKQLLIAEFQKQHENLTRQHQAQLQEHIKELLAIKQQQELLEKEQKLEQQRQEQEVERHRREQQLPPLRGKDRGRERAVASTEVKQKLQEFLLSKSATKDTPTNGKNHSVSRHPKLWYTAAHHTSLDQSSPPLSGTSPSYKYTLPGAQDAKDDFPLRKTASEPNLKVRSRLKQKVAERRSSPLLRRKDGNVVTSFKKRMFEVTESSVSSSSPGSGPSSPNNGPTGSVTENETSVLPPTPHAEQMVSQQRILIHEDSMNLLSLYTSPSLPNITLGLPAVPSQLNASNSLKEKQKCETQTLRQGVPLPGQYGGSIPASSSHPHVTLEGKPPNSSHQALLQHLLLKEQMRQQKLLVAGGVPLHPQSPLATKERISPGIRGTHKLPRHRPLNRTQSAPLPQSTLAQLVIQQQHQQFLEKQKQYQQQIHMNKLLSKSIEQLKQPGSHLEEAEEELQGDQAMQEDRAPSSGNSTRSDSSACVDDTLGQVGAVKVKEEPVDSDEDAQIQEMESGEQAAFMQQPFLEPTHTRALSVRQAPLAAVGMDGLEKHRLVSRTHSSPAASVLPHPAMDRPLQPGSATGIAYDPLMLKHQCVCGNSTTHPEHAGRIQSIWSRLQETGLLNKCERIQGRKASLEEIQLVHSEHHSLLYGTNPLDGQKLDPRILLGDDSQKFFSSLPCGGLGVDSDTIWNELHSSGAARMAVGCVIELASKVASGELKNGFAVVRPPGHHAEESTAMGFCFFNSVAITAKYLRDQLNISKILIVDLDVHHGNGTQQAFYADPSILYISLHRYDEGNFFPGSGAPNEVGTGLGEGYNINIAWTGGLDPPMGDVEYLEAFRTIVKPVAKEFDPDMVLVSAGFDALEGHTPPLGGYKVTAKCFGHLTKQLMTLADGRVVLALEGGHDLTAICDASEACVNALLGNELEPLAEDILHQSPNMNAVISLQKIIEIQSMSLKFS
# test-name: HDAC9 Enzyme Inhibitory Assay (HDAC-Glo class IIa)
# Format: biochemical
# test-settings: 1 μM test compound; wells without enzyme = 100% inhibition; read-out: HDAC9 inhibitory rate (%) (1 μM)
Structures can show the parent of a compound that is named as a salt.
quantity: inhibition at 1 µM
The reply should consist of the numeric value with the unit placed after it.

Task item: Recorded inhibition at 1 µM for Cc1cc(F)ccc1[C@@H]1CNCC[C@H]1N1Cc2ccc(-c3noc(C(F)(F)F)n3)cc2C1=O (relative stereo) , please?
Reply: 99%

Task item: Follow-up item: CN1CC(C)(C(=O)N[C@@H]2CCCC[C@H]2N2Cc3ccc(-c4noc(C(F)(F)F)n4)cc3C2=O)C1
Reply: 22%

Task item: Same question for NC(=O)N1CC[C@@H](N2Cc3ccc(-c4noc(C(F)(F)F)n4)cc3C2=O)[C@H](c2ccccc2)C1 please.
Reply: 96%

Task item: What do we get for Cc1cc([C@@H]2CNCC[C@H]2N2Cc3ccc(-c4noc(C(F)(F)F)n4)cc3C2=O)ccc1F (relative stereo) ?
Reply: 99%

Task item: Also check O=C1NCC(C(=O)N[C@@H]2CCCC[C@H]2N2Cc3ccc(-c4noc(C(F)(F)F)n4)cc3C2=O)N1 (stereo partly shown)
Reply: 19%

Task item: Repeat with CC1(C(=O)N[C@@H]2CCCC[C@H]2N2Cc3ccc(-c4noc(C(F)(F)F)n4)cc3C2=O)CC1(F)F (stereo partly shown)
Reply: 69%

Task item: What do you get for CC(C)(C)OC(=O)N[C@@H]1CCCC[C@H]1N1Cc2ccc(-c3noc(C(F)(F)F)n3)cc2C1=O [Example 26] ?
Reply: 47%

Task item: Another compound: N#CC12CC(C(=O)N[C@@H]3CCCC[C@H]3N3Cc4ccc(-c5noc(C(F)(F)F)n5)cc4C3=O)(C1)C2
Reply: 38%

Task item: // repeat for O=C(N[C@@H]1CCCC[C@H]1N1Cc2ccc(-c3noc(C(F)(F)F)n3)cc2C1=O)c1cocn1 and report
Reply: 55%

Task item: Can you handle CC1(C(=O)N[C@H]2CCCC[C@@H]2N2Cc3ccc(-c4noc(C(F)(F)F)n4)cc3C2=O)COC1 next?
Reply: 32%

Task item: Consider next the compound CC(=O)N1CC[C@H](N2Cc3cc(-c4noc(C(F)(F)F)n4)ccc3C2=O)[C@H](c2ccccc2)C1 (relative stereo) in the same way.
Reply: 97%

Task item: Subsequent entry: CC1(C(=O)N[C@@H]2COCC[C@H]2N2Cc3ccc(-c4noc(C(F)(F)F)n4)cc3C2=O)COC1
Reply: 52%

Task item: CCNC(=O)N1CC[C@@H](N2Cc3ccc(-c4noc(C(F)(F)F)n4)cc3C2=O)[C@H](c2ccccc2)C1 ?
Reply: 95%

Task item: How about O=C1c2cc(-c3noc(C(F)(F)F)n3)ccc2CN1[C@H]1CCNC[C@@H]1c1ccccc1 ?
Reply: 97%

Task item: Param item: CN1CCC(C(=O)N[C@@H]2CCCC[C@H]2N2Cc3ccc(-c4noc(C(F)(F)F)n4)cc3C2=O)CC1
Reply: 5%

Task item: // query: O=C(N[C@@H]1CCCC[C@H]1N1Cc2ccc(-c3noc(C(F)(F)F)n3)cc2C1=O)N1C2CCCC1COC2
Reply: 34%

Task item: Also check O=C(N[C@@H]1CCCC[C@H]1N1Cc2ncc(-c3noc(C(F)(F)F)n3)cc2C1=O)C1CC1
Reply: 85%

Task item: Likewise for O=C1c2cc(-c3noc(C(F)(F)F)n3)ccc2CN1[C@@H]1CCOC[C@H]1c1ccccc1 (relative stereo) ?
Reply: 96%

Task item: Also check O=C1c2cc(-c3noc(C(F)(F)F)n3)ccc2CN1[C@@H]1CCNC[C@H]1c1cccc(Cl)c1 (relative stereo)
Reply: 99%

Task item: Try O=C(N[C@@H]1CCCC[C@H]1N1Cc2ccc(-c3noc(C(F)(F)F)n3)cc2C1=O)[C@@H]1CCCO1 next.
Reply: 37%

Task item: Continue with CC(C)(C)OC(=O)N[C@@H]1CCC[C@H]1N1Cc2ccc(-c3noc(C(F)(F)F)n3)cc2C1=O
Reply: 41%

Task item: One more compound: CC1(C(=O)N[C@@H]2CCCC[C@H]2N2Cc3ccc(-c4noc(C(F)(F)F)n4)cc3C2=O)CC1
Reply: 66%

Task item: And for C[C@H](c1ccccc1)N1CC[C@@H]2CC[C@@H](N3Cc4ccc(-c5noc(C(F)(F)F)n5)cc4C3=O)[C@@H]21 ?
Reply: 89%

Task item: Please give the result for O=C1c2cc(-c3noc(C(F)(F)F)n3)ccc2CN1C1CCNC[C@@H]1c1ccccc1 (stereo partly shown) [Example 22, hydrochloride] too.
Reply: 96%

Task item: Can you check Cc1cc([C@@H]2CNCC[C@H]2N2Cc3ccc(-c4noc(C(F)(F)F)n4)cc3C2=O)ccc1Cl (relative stereo) next?
Reply: 99%

Task item: Try this compound too: O=C(N[C@@H]1CCOC[C@H]1N1Cc2ccc(-c3noc(C(F)(F)F)n3)cc2C1=O)[C@@H]1CCOC1
Reply: 52%

Task item: Try the compound O=C(N[C@@H]1CCOC[C@H]1N1Cc2ccc(-c3noc(C(F)(F)F)n3)cc2C1=O)[C@@H]1CC1(F)F
Reply: 49%

Task item: Next: CC(C)N(C(=O)N[C@@H]1CCCC[C@H]1N1Cc2ccc(-c3noc(C(F)(F)F)n3)cc2C1=O)C(C)C
Reply: 36%
